Listed below: protein stability index values for each entry.
B1: PPFIA4 (parent)
chain: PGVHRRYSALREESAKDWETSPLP

Variants of: B1
Test: protein stability index of a GFP-peptide fusion (GPS, HEK-293T) (PSI 1-6); higher = more stable;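 further: lentivirally expressed fusions sorted by FACS into six bins by GFP to DsRed ratio, PSI derived from sequencing read proportions per bin multiplied by bin number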
Settings: c terminus: a fixed tail appended
Could you keep your reply to the number by itself?

Request: Entry G2S : reported protein stability index = ?
Response: 4.28

Request: Entry K16E : reported protein stability index = ?
Response: 4.51

Request: Entry S14Q : reported protein stability index = ?
Response: 3.63

Request: Entry L10A : reported protein stability index = ?
Response: 3.69

Request: Entry S8V : reported protein stability index = ?
Response: 3.67

Request: Entry P22S : reported protein stability index = ?
Response: 4.31

Request: Entry A9Q : reported protein stability index = ?
Response: 3.5

Request: Entry S14R : reported protein stability index = ?
Response: 3.07

Request: Entry Y7K : reported protein stability index = ?
Response: 4.58

Request: Entry R11T : reported protein stability index = ?
Response: 4.88

Request: Entry S14P : reported protein stability index = ?
Response: 3.87

Request: Entry R6C : reported protein stability index = ?
Response: 3.72

Request: Entry W18T : reported protein stability index = ?
Response: 5.24

Request: Entry L23R : reported protein stability index = ?
Response: 4.25
